Tested on: Staphylococcus aureus
METHOD: Antibacterial activity against Staphylococcus aureus ATCC 25923 assessed as diameter of growth inhibition zone at 100 ug/ml after 24 hr by cup-plate method
Format: functional
MEASUREMENT SETUP: ATCC 25923, 24 h, read-out: DIZ
MEASURED PROPERTY: zone of inhibition at 100 µg/mL

A selection of reference data follows.
| RECORD SMILES | zone of inhibition at 100 µg/mL |
| --- | --- |
| Fc1ccc(-n2c(S)nnc2CSc2nnc(-c3ccccc3)n2-c2ccccc2)cc1 | 21 mm |
| CCOc1ccc(-n2c(S)nnc2Sc2nnc(-c3ccccc3)n2-c2ccccc2)cc1 | 5 mm |
| COc1ccc(-n2c(S)nnc2Sc2nnc(-c3ccccc3)n2-c2ccccc2)cc1 | 5 mm |
| Sc1nnc(Sc2nnc(-c3ccccc3)n2-c2ccccc2)n1-c1ccc(Cl)cc1 | 16 mm |
| Sc1nnc(CSc2nnc(-c3ccccc3)n2-c2ccccc2)n1-c1ccccc1 | 16 mm |

### Prompt Using known records, supply zone of inhibition at 100 µg/mL for CC(C)n1c(S)nnc1CSc1nnc(-c2ccccc2)n1-c1ccccc1
### Response 5 mm

### Prompt For the molecule CC(C)n1c(S)nnc1Sc1nnc(-c2ccccc2)n1-c1ccccc1 , give its measured zone of inhibition at 100 µg/mL value.
### Response 5 mm

### Prompt Entry CC1(C)S[C@@H]2[C@H](NC(=O)[C@H](N)c3ccccc3)C(=O)N2[C@H]1C(=O)O needs its zone of inhibition at 100 µg/mL filled in; supply it.
### Response 28 mm

### Prompt Quote zone of inhibition at 100 µg/mL reported for Sc1nnc(Sc2nnc(-c3ccccc3)n2-c2ccccc2)n1-c1ccccc1 please.
### Response 5 mm

### Prompt Give the reported zone of inhibition at 100 µg/mL for this molecule. Sc1nnc(CSc2nnc(-c3ccccc3)n2-c2ccccc2)n1-c1ccc(Cl)cc1
### Response 16 mm

----------
Tested on: Staphylococcus aureus
METHOD: Antibacterial activity against Staphylococcus aureus ATCC 25923 assessed as diameter of growth inhibition zone at 100 ug/ml after 24 hr by cup-plate method
Format: functional
MEASUREMENT SETUP: ATCC 25923, 24 h, read-out: DIZ
MEASURED PROPERTY: zone of inhibition at 100 µg/mL (mm)
Give the value in mm but do not write mm after it.

Consider the worked cases shown below.
| RECORD SMILES | zone of inhibition at 100 µg/mL [mm] |
| --- | --- |
| COc1ccc(-n2c(S)nnc2CSc2nnc(-c3ccccc3)n2-c2ccccc2)cc1 | 21 |
| Fc1ccc(-n2c(S)nnc2Sc2nnc(-c3ccccc3)n2-c2ccccc2)cc1 | 16 |

Consider the record given below.
### Prompt # return recorded zone of inhibition at 100 µg/mL for input CCOc1ccc(-n2c(S)nnc2CSc2nnc(-c3ccccc3)n2-c2ccccc2)cc1
### Response 5
